- Tested on: P. aeruginosa
- assayInfo: In-vitro antimicrobial test (MIC, NCCLS protocol)
- Type: cell-based
- conditionsUsed: standard NCCLS protocol
Measured MIC of individual entries
quantityKind: MIC

>>> valuereported("CC1CN(c2c(F)cc3c(=O)c(C(=O)O)cn4c3c2CC[C@@H]4C)CCC1O (mixture of isomers) [Compound B]")
"6.25 µg/mL"
>>> valuereported("CC1CCc2c(N3CCC(O)CC3)c(F)cc3c(=O)c(C(=O)O)cn1c23 (racemic) [Ref. 1, reference compound]")
"6.25 µg/mL"
>>> valuereported("C[C@H]1CCc2c(N3CCC(O)CC3)c(F)cc3c(=O)c(C(=O)O)cn1c23 [Ref. 2, reference compound]")
"3.12 µg/mL"
>>> valuereported("C[C@@H]1CN(c2c(F)cc3c(=O)c(C(=O)O)cn4c3c2CC[C@@H]4C)CC[C@@H]1O (relative stereo)")
"6.25 µg/mL"
